Consider the following binders and their measured Kd readings.
- target or test system: T1, human LRP5 domains E3-E4 (E644-Q1263 of SEQ ID NO: 42) (human, UniProt O75197 644-1263)
- T1 construct: Soluble fragment made in-house; It was biotinylated for phage sorting; also called LRP5-E3/E4; LRP5E3/E4
- T1 sequence: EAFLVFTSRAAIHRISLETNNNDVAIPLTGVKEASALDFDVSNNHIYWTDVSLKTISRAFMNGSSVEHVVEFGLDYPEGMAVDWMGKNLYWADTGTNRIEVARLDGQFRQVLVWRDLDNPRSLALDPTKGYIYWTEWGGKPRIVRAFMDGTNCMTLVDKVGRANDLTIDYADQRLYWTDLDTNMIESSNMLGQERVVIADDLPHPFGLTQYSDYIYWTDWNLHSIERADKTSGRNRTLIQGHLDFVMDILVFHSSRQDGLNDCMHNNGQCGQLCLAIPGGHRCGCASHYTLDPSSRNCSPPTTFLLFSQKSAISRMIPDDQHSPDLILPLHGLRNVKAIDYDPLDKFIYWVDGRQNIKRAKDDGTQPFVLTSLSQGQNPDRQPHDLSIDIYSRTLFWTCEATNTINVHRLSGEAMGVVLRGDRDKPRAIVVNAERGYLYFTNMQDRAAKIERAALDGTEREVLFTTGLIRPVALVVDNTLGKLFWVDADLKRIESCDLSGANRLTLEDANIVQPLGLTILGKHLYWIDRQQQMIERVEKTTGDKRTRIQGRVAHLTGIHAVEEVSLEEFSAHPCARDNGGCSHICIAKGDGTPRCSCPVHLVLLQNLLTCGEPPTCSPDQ
- protocol details: SPR, BIAcore T100, IgG captured by anti-human Fc, LRP5E3/E4 as analyte, 25 C
The response must be a number in nM with no trailing unit.

In plain terms, YW629.51.80 (antibody, human IgG1, V domains shown, also called P6C.51.80) VH: EVQLVESGGGLVQPGGSLRLSCAASGFTFSSYAMHWVRQAPGKGLEWVSRISSNGGSTYYADSVKGRFTISRDNSKNTLYLQMNSLRAEDTAVYYCARWIPQSYPFASYKSGFDYWGQGTLVTVSS VL: DIQMTQSPSSLSASVGDRVTITCRASQAIYSYLAWYQQKPGKAPKLLIYDASSLESGVPSRFSGSGSGTDFTLTISSLQPEDFATYYCQQYYSYPFTFGQGTKVEIKR has a documented Kd of 0.268

Next binder, please.
Given item YW629.51.13 (antibody, human IgG1, V domains shown, also called P6C.51.13) VH: EVQLVESGGGLVQPGGSLRLSCAASGFTFSSYAMHWVRQAPGKGLEWVSRISSNGGSTYYADSVKGRFTISRDNSKNTLYLQMNSLRAEDTAVYYCARWIPQSYPFRSYKSGFDYWGQGTLVTVSS VL: DIQMTQSPSSLSASVGDRVTITCRASQGISSYLAWYQQKPGKAPKLLIYDASSLESGVPSRFSGSGSGTDFTLTISSLQPEDFATYYCQQYYSYPFTFGQGTKVEIKR , the value recorded as its Kd is 1.13

meta.source: patent US20190010228A1
